Target: T1, human GLP-2 receptor (hGLP2-R) (human, UniProt O95838)
T1 sequence: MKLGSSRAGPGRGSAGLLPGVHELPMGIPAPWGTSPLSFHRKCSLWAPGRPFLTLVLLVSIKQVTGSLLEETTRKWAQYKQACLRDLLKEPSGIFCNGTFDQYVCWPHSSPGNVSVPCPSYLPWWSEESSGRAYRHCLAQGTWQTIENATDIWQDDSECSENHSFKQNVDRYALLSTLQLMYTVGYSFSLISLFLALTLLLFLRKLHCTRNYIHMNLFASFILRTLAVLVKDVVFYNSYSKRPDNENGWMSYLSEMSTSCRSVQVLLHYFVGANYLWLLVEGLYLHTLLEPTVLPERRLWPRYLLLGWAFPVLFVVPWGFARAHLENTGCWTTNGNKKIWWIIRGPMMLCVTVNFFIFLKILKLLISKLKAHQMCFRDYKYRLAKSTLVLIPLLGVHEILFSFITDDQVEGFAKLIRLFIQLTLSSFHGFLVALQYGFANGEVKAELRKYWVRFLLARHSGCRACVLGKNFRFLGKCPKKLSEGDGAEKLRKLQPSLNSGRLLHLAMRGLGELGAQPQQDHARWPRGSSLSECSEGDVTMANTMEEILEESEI
Assay: cell-based or functional assay
Numbered stars: 1 amine (or outer) side, 2 acyl side, 3 side chain; on linkers, the order of the positions; unused ones are H or OH. Square brackets hold non-standard residues; d marks the D form. Side chains are listed from the residue outwards. * marks the point of attachment. C20 diacid = O=C(O)CCCCCCCCCCCCCCCCCCC(=O)*; C18 diacid = O=C(O)CCCCCCCCCCCCCCCCC(=O)*; γGlu = O=C(O)[C@H](CCC(=O)[*:2])N[*:1]; AEEA = NCCOCCOCC(=O)O; Aib = CC(C)(N)C(=O)O
PROPERTY LABEL: EC50 GLP-2 (nM), cAMP AlphaScreen

Would you please look over these solved cases?
BINDER	RESULT
H-H[Aib]EGSFTSEK([AEEA-AEEA-γGlu-C20 diacid])ATILDEQAARDFIAWLIEHKITD-OH [Compound 42]	0.33 nM
H-H[Aib]EGSFTSELATILDAK([AEEA-AEEA-KEK-γGlu-C20 diacid])AARDFIAWLIEHKITD-OH [Compound 63]	0.17 nM
H-H[Aib]EGSFTSELATILDK([AEEA-KEK-γGlu-C20 diacid])KAARDFIAWLIEHKITD-OH [Compound 59]	0.11 nM
H-H[Aib]EGTFTSELATILDK([γGlu-C18 diacid])KAARDFIAWLIEHKITD-OH [Compound 6]	0.12 nM

Then this binder:
Look up and state reported EC50 GLP-2 (nM), cAMP AlphaScreen for H-H[Aib]EGSFTSELATILDEQAAK([AEEA-AEEA-γGlu-C20 diacid])DFIAWLIEHKITD-OH [Compound 45]
0.36 nM
